System: 996289-038-R-J1-PDC spheroid viability;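 also: luminescence used as a proxy for viable cell amount; spheroids exposed to compounds for seven days before viability read; percent viability relative to DMSO vehicle control as 100%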
test-summary: Anticancer human tumor 996289-038-R-J1-PDC patient-derived colon adenocarcinoma cell line growth inhibition [PI3K]
condition-description: second compound 0.316 µM; first compound 0.1 µM; active compounds read low; spheroids with HUVEC and MSC
Excerpt: Combinatorial screen of targeted agents with the PI3K inhibitors inavolisib, alpelisib, duvelisib, and copanlisib in multi-cell type tumor spheroids A high-throughput screen of multi-cell type tumor spheroids was designed to identify active combinations of targeted small molecules and PI3K pathway inhibitors. […] Compounds. […] If the clinical Cmax for an agent had not been determined, the highest concentration tested was 10 microM. […]
# viability, T/C annotations
Reply numerically in %, unit not repeated.

[
  {
    "compound": "CC(C)NCC(C(=O)N1CCN(c2ncnc3c2C(C)CC3O)CC1)c1ccc(Cl)cc1 (stereo unspecified) + COc1c(OCCCN2CCOCC2)ccc2c3n(c(=NC(=O)c4cnc(N)nc4)nc12)CCN3",
    "tested-system": "996289-038-R-J1-PDC spheroid viability",
    "number": 33.7
  },
  {
    "compound": "CC(Cn1ccc(-c2ccc(C#N)c(Cl)c2)n1)NC(=O)c1cc(C(C)O)[nH]n1 (stereo unspecified) + COc1c(OCCCN2CCOCC2)ccc2c3n(c(=NC(=O)c4cnc(N)nc4)nc12)CCN3",
    "tested-system": "996289-038-R-J1-PDC spheroid viability",
    "number": 38.9
  },
  {
    "compound": "Cn1ncnc1[C@H]1c2n[nH]c(=O)c3cc(F)cc(c23)N[C@@H]1c1ccc(F)cc1 + COc1c(OCCCN2CCOCC2)ccc2c3n(c(=NC(=O)c4cnc(N)nc4)nc12)CCN3",
    "tested-system": "996289-038-R-J1-PDC spheroid viability",
    "number": 43.8
  },
  {
    "compound": "CCN1CCN(Cc2ccc(Nc3ncc(F)c(-c4cc(F)c5nc(C)n(C(C)C)c5c4)n3)nc2)CC1 + Cc1nc(NC(=O)N2CCCC2C(N)=O)sc1-c1ccnc(C(C)(C)C(F)(F)F)c1",
    "tested-system": "996289-038-R-J1-PDC spheroid viability",
    "number": 63
  },
  {
    "compound": "CC(=O)c1c(C)c2cnc(Nc3ccc(N4CCNCC4)cn3)nc2n(C2CCCC2)c1=O + COc1c(OCCCN2CCOCC2)ccc2c3n(c(=NC(=O)c4cnc(N)nc4)nc12)CCN3",
    "tested-system": "996289-038-R-J1-PDC spheroid viability",
    "number": 29.4
  }
]

Note to self: viability, T/C recorded for Cn1ncc(Cl)c1-c1cc(C(=O)NC(CN)Cc2cccc(F)c2)sc1Cl (stereo unspecified) + COc1c(OCCCN2CCOCC2)ccc2c3n(c(=NC(=O)c4cnc(N)nc4)nc12)CCN3 was 33

Note to self: viability, T/C recorded for CC(C)n1nc(-c2ccc3oc(N)nc3c2)c2c(N)ncnc21 + Cc1nc(NC(=O)N2CCCC2C(N)=O)sc1-c1ccnc(C(C)(C)C(F)(F)F)c1 was 24.1

Note to self: viability, T/C recorded for CC1(C)CCC(CN2CCN(c3ccc(C(=O)NS(=O)(=O)c4ccc(NCC5CCOCC5)c([N+](=O)[O-])c4)c(Oc4cnc5[nH]ccc5c4)c3)CC2)=C(c2ccc(Cl)cc2)C1 + CC(Nc1ncnc2nc[nH]c12)c1cc2cccc(Cl)c2c(=O)n1-c1ccccc1 was 96.3

Note to self: viability, T/C recorded for CC1(C)CCC(Nc2ncc(C(F)(F)F)c(-c3c[nH]c4c(P(C)(C)=O)c(C#N)ccc34)n2)CN1 (stereo unspecified) + Cc1nc(NC(=O)N2CCCC2C(N)=O)sc1-c1ccnc(C(C)(C)C(F)(F)F)c1 was 78

Note to self: viability, T/C recorded for C=CC(=O)N1CCN(c2nc(=O)n(-c3c(C)ccnc3C(C)C)c3nc(-c4c(O)cccc4F)c(F)cc23)C(C)C1 (stereo unspecified) + COc1c(OCCCN2CCOCC2)ccc2c3n(c(=NC(=O)c4cnc(N)nc4)nc12)CCN3 was 42.5

Note to self: viability, T/C recorded for CC(Cn1ccc(-c2ccc(C#N)c(Cl)c2)n1)NC(=O)c1cc(C(C)O)[nH]n1 (stereo unspecified) + Cc1nc(NC(=O)N2CCCC2C(N)=O)sc1-c1ccnc(C(C)(C)C(F)(F)F)c1 was 85.3
